From: the supplement of paper PMC7125110

Examples of variants with documented self-cleavage kobs at 2500 uM GlcN6P follow.
B1: glmS ribozyme (parent)
chain: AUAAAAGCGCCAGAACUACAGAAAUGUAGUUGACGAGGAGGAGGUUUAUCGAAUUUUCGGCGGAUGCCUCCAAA

Variants of: B1
Assay: self-cleavage kobs at 2500 uM GlcN6P; higher = faster cleavage; RNA array
Details: with glucosamine-6-phosphate
This sample holds only a part of the variants without activity.

{"mut": "U54C C71G", "measureUnit": "s⁻¹", "boundSign": "=", "self-cleavage kobs at 2500 uM GlcN6P": 0.000351}
{"mut": "A14G G41C A42U", "measureUnit": "s⁻¹", "boundSign": "=", "self-cleavage kobs at 2500 uM GlcN6P": "3.8e-05"}
{"mut": "G59U A64U", "measureUnit": "s⁻¹", "boundSign": "<", "self-cleavage kobs at 2500 uM GlcN6P": "1e-05"}
{"mut": "G7C A52U U54G C61U", "measureUnit": "s⁻¹", "boundSign": "<", "self-cleavage kobs at 2500 uM GlcN6P": "1e-05"}
{"mut": "A14U G32U C71A", "measureUnit": "s⁻¹", "boundSign": "=", "self-cleavage kobs at 2500 uM GlcN6P": "4.64e-05"}
{"mut": "A48U G66A", "measureUnit": "s⁻¹", "boundSign": "=", "self-cleavage kobs at 2500 uM GlcN6P": 0.000123}
{"mut": "A14C G32U U47C C67G", "measureUnit": "s⁻¹", "boundSign": "<", "self-cleavage kobs at 2500 uM GlcN6P": "1e-05"}
{"mut": "G13A U31G A36G", "measureUnit": "s⁻¹", "boundSign": "<", "self-cleavage kobs at 2500 uM GlcN6P": "1e-05"}
{"mut": "G43C G44U C58U", "measureUnit": "s⁻¹", "boundSign": "<", "self-cleavage kobs at 2500 uM GlcN6P": "1e-05"}
{"mut": "A12C G37C", "measureUnit": "s⁻¹", "boundSign": "=", "self-cleavage kobs at 2500 uM GlcN6P": "2.27e-05"}
{"mut": "A14C G41A G62U C70G", "measureUnit": "s⁻¹", "boundSign": "<", "self-cleavage kobs at 2500 uM GlcN6P": "1e-05"}
{"mut": "A53C G66U", "measureUnit": "s⁻¹", "boundSign": "=", "self-cleavage kobs at 2500 uM GlcN6P": 0.000344}
{"mut": "U31C G43A", "measureUnit": "s⁻¹", "boundSign": "<", "self-cleavage kobs at 2500 uM GlcN6P": "1e-05"}
{"mut": "U47A C67A", "measureUnit": "s⁻¹", "boundSign": "=", "self-cleavage kobs at 2500 uM GlcN6P": 0.00288}
{"mut": "C10G U54A C58G G62C C67G", "measureUnit": "s⁻¹", "boundSign": "=", "self-cleavage kobs at 2500 uM GlcN6P": "6.02e-05"}
{"mut": "G32A C50G C71U", "measureUnit": "s⁻¹", "boundSign": "=", "self-cleavage kobs at 2500 uM GlcN6P": 0.000168}
{"mut": "G41C G66A", "measureUnit": "s⁻¹", "boundSign": "=", "self-cleavage kobs at 2500 uM GlcN6P": 0.000621}
{"mut": "U57C U69C", "measureUnit": "s⁻¹", "boundSign": "=", "self-cleavage kobs at 2500 uM GlcN6P": "6.42e-05"}
{"mut": "C16U C58U C67U C70U", "measureUnit": "s⁻¹", "boundSign": "=", "self-cleavage kobs at 2500 uM GlcN6P": "6.37e-05"}
{"mut": "A6U G44U U55C", "measureUnit": "s⁻¹", "boundSign": "<", "self-cleavage kobs at 2500 uM GlcN6P": "1e-05"}
{"mut": "G37U G60U", "measureUnit": "s⁻¹", "boundSign": "<", "self-cleavage kobs at 2500 uM GlcN6P": "1e-05"}
{"mut": "A14U C67A C71U", "measureUnit": "s⁻¹", "boundSign": "=", "self-cleavage kobs at 2500 uM GlcN6P": 0.000265}
{"mut": "A33U A64C C70A", "measureUnit": "s⁻¹", "boundSign": "<", "self-cleavage kobs at 2500 uM GlcN6P": "1e-05"}
{"mut": "C8U U47C", "measureUnit": "s⁻¹", "boundSign": "<", "self-cleavage kobs at 2500 uM GlcN6P": "1e-05"}
{"mut": "G29C G44C C50U G66U", "measureUnit": "s⁻¹", "boundSign": "<", "self-cleavage kobs at 2500 uM GlcN6P": "1e-05"}
{"mut": "A48U A64G", "measureUnit": "s⁻¹", "boundSign": "=", "self-cleavage kobs at 2500 uM GlcN6P": 0.0012}
{"mut": "A15U G37U G43C U56A C68G C71G", "measureUnit": "s⁻¹", "boundSign": "<", "self-cleavage kobs at 2500 uM GlcN6P": "1e-05"}
{"mut": "C10U U57G C67U C70U", "measureUnit": "s⁻¹", "boundSign": "=", "self-cleavage kobs at 2500 uM GlcN6P": "6.12e-05"}
{"mut": "G41A G66U C70A", "measureUnit": "s⁻¹", "boundSign": "=", "self-cleavage kobs at 2500 uM GlcN6P": "6.32e-05"}
{"mut": "A42G A64G C70A", "measureUnit": "s⁻¹", "boundSign": "=", "self-cleavage kobs at 2500 uM GlcN6P": 0.000247}
{"mut": "U57C G60A G66C", "measureUnit": "s⁻¹", "boundSign": "<", "self-cleavage kobs at 2500 uM GlcN6P": "1e-05"}
{"mut": "U65G C67A C71G", "measureUnit": "s⁻¹", "boundSign": "=", "self-cleavage kobs at 2500 uM GlcN6P": "7.1e-05"}
{"mut": "C58U C67G", "measureUnit": "s⁻¹", "boundSign": "=", "self-cleavage kobs at 2500 uM GlcN6P": "3.68e-05"}
{"mut": "A12C G41A", "measureUnit": "s⁻¹", "boundSign": "=", "self-cleavage kobs at 2500 uM GlcN6P": 0.00105}
{"mut": "C11G A39U C50G", "measureUnit": "s⁻¹", "boundSign": "<", "self-cleavage kobs at 2500 uM GlcN6P": "1e-05"}
{"mut": "G7U G29C", "measureUnit": "s⁻¹", "boundSign": "<", "self-cleavage kobs at 2500 uM GlcN6P": "1e-05"}
{"mut": "A12C C68U", "measureUnit": "s⁻¹", "boundSign": "=", "self-cleavage kobs at 2500 uM GlcN6P": 0.000436}
{"mut": "C8G C58U", "measureUnit": "s⁻¹", "boundSign": "<", "self-cleavage kobs at 2500 uM GlcN6P": "1e-05"}
{"mut": "C16U G32C U54C", "measureUnit": "s⁻¹", "boundSign": "=", "self-cleavage kobs at 2500 uM GlcN6P": "5.6e-05"}
{"mut": "U65G U69C C71U", "measureUnit": "s⁻¹", "boundSign": "=", "self-cleavage kobs at 2500 uM GlcN6P": "6.97e-05"}
{"mut": "G13A G40A G44U C67U C68G", "measureUnit": "s⁻¹", "boundSign": "<", "self-cleavage kobs at 2500 uM GlcN6P": "1e-05"}
{"mut": "C71U", "measureUnit": "s⁻¹", "boundSign": "=", "self-cleavage kobs at 2500 uM GlcN6P": 0.0256}
{"mut": "G7U G32U U54C C68G", "measureUnit": "s⁻¹", "boundSign": "<", "self-cleavage kobs at 2500 uM GlcN6P": "1e-05"}
{"mut": "A14G G37A", "measureUnit": "s⁻¹", "boundSign": "=", "self-cleavage kobs at 2500 uM GlcN6P": 0.00399}
{"mut": "C16A U54C", "measureUnit": "s⁻¹", "boundSign": "=", "self-cleavage kobs at 2500 uM GlcN6P": 0.000967}
{"mut": "G13C U54C", "measureUnit": "s⁻¹", "boundSign": "=", "self-cleavage kobs at 2500 uM GlcN6P": "5.89e-05"}
